This collection of values is drawn from paper PMC10397247.

Task for the reader: assign each of the following binders its reported interaction score.
Target: T1, P7mS
T1 chain: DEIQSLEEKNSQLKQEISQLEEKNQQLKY
Assay: two-hybrid library CCNG1;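 further: natural log of median RNA to DNA barcode read ratio; higher means stronger binding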

For every listed record, write down its interaction score.
1. DKNSQLKEENSQLEEKIQQLKEKIQQLKY [P10mS]
2. DKISQLKQKIQQLKQENQQLEEENSQLEY [P4mS]
3. DKNSQLKEEIQQLEEENQQLEEKISQLKY [P6mS]
4. DKNSQLKEKISQLKEKIQQLKEENQQLEY [P12mS]

// result
1. 0.649
2. -1.14
3. -2.21
4. -0.947
